Ref: patent US20240252488A1

Biological target: MLKL (Homo sapiens, UniProt Q8NB16)
Sequence (Q8NB16 whole entry): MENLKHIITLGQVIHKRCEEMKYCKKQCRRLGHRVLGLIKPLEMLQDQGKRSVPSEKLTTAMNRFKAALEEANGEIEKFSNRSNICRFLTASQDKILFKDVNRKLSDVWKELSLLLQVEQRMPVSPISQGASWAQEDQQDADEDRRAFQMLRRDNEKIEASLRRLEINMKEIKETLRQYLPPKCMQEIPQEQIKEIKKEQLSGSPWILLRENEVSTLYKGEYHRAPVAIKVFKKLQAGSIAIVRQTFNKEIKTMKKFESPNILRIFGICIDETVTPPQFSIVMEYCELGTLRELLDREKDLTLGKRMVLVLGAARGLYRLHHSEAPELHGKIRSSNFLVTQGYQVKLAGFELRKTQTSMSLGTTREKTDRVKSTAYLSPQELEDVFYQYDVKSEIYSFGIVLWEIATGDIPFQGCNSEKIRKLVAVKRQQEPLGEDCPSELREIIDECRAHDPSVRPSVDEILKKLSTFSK
Test: MLKL degradation assay in HepG2 cell line (western blot)
Format: cell-based
Parameters: endogenous in cells; host or cells: HepG2 or HaCaT
Settings: compound 10 μM; cell line not given
Protocol: MLKL degradation ability was evaluated in the following method. […] For protein preparation after incubation, cells were washed with 1×TBST, and 60 μL of RIPA lysis buffer containing Halt™ Protease and Phosphatase Inhibitor Cocktail was dispensed into each well. […] For protein quantification, after dispensing sample and BCA (0-4 mg/ml) in a 96 well plate, 100 μL of BCA was dispensed and reacted in a 37° C. incubator for 30 minutes. […]
1.0 means recorded Degradation assay (Degradation %) 10 μM is 80% or above; 0.0 means it is below 80%.

Exercise: Quick check, Degradation assay (Degradation %) 10 μM >= 80%? Nc1ncc(-c2cnn(C3CCN(C(=O)COCCOCCNC(=O)COc4cccc5c4C(=O)N(C4CCC(=O)NC4=O)C5=O)CC3)c2)nc1C(=O)O[C@@H](C(=O)Nc1ccc(F)cc1)c1ccccc1 (stereo partly shown) [TDH-188]
Solution: 0.0

Exercise: Quick check, Degradation assay (Degradation %) 10 μM >= 80%? Nc1ncc(-c2ccc(N3CCN(CCOCCOCCNC(=O)COc4ccc5c(c4)C(=O)N(C4CCC(=O)NC4=O)C5=O)CC3)nc2)nc1C(=O)OC(C(=O)Nc1ccc(F)cc1)c1ccccc1 (stereo not shown) [TDH-262]
Solution: 0.0

Exercise: Quick check, Degradation assay (Degradation %) 10 μM >= 80%? Nc1ncc(-c2cnn(C3CCN(C(=O)C4CCN(C(=O)C5CCN(c6cccc7nnn(C8CCC(=O)NC8=O)c(=O)c67)CC5)CC4)CC3)c2)nc1C(=O)O[C@@H](C(=O)Nc1ccc(F)cc1)c1ccccc1 (stereo partly shown) [TDH-414]
Solution: 0.0

Exercise: Quick check, Degradation assay (Degradation %) 10 μM >= 80%? Nc1ncc(-c2cnn(C3CCN(CCOCCOCCOCCNC(=O)CNc4ccc5c(c4)C(=O)N(C4CCC(=O)NC4=O)C5=O)CC3)c2)nc1C(=O)O[C@@H](C(=O)Nc1ccc(F)cc1)c1ccccc1 (stereo partly shown) [TDH-144]
Solution: 1.0

Exercise: Quick check, Degradation assay (Degradation %) 10 μM >= 80%? COc1ccc(C(=O)N2CCC(C(=O)N3CCC4(CC3)CC(N3CCC(CN5CCC(n6cc(-c7cnc(N)c(C(=O)O[C@@H](C(=O)Nc8ccc(F)cc8)c8ccccc8)n7)cn6)CC5)CC3)C4)CC2)cc1N1CCC(=O)NC1=O [TDH-508]
Solution: 1.0

Exercise: Quick check, Degradation assay (Degradation %) 10 μM >= 80%? Nc1ncc(-c2cnn(C3CCN(C(=O)C4CCN(C(=O)CC5CCN(c6cccc7c6C(=O)N(C6CCC(=O)NC6=O)C7=O)CC5)CC4)CC3)c2)nc1C(=O)O[C@@H](C(=O)Nc1ccc(F)cc1)c1ccccc1 (stereo partly shown) [TDH-374]
Solution: 1.0

Exercise: Quick check, Degradation assay (Degradation %) 10 μM >= 80%? Nc1ncc(-c2cnn([C@@H]3CCN(CC4CCN(C(=O)CNc5cccc6c5C(=O)N(C5CCC(=O)NC5=O)C6=O)CC4)C3)c2)nc1C(=O)OC(C(=O)Nc1ccc(F)cc1)c1ccccc1 (stereo partly shown) [TDH-285]
Solution: 0.0

Exercise: Quick check, Degradation assay (Degradation %) 10 μM >= 80%? COc1ccc(C(=O)N2CCC(CN3CCN(CCCN4CCC(n5cc(-c6cnc(N)c(C(=O)O[C@@H](C(=O)Nc7ccc(F)cc7)c7ccccc7)n6)cn5)CC4)CC3)CC2)cc1N1CCC(=O)NC1=O [TDH-478]
Solution: 1.0

Exercise: Quick check, Degradation assay (Degradation %) 10 μM >= 80%? Nc1ncc(-c2cnn(C3CN(CC4CCN(C(=O)CNc5ccc6c(c5)C(=O)N(C5CCC(=O)NC5=O)C6=O)CC4)C3)c2)nc1C(=O)O[C@@H](C(=O)Nc1ccc(F)cc1)c1ccccc1 (stereo partly shown) [TDH-360]
Solution: 0.0
